Measured values drawn from paper PMC11676667 for this set.

assay: Plasma pharmacokinetics after single oral dose of Δ8-THCV in MCT oil (LC-MS/MS, non-compartmental analysis); assay type: in vivo, human; conditions: human, plasma, oral, 25 mg, 6 h; 25 mg Δ8-THCV dose; Median (IQ Range)
For each entry below, report its concentration at 6 h value.
Express your answer in ng/mL, writing the number without its unit.

Suppose we examine the molecule `CCCc1cc(O)c2c(c1)OC(C)(C)[C@@H]1CC=C(C(=O)O)C[C@@H]21` ; what concentration at 6 h value has been reported?
82.6

Suppose we examine the molecule CCCCCc1cc(O)c2c(c1)OC(C)(C)[C@@H]1CC=C(C(=O)O)CC21 (single isomer, unassigned; (+)) [Δ8-THC-COOH, (+)-11-nor-Δ8-THC-9-carboxylic acid] ; what concentration at 6 h value has been reported?
0

Suppose we examine the molecule CCCc1cc(O)c2c(c1)OC(C)(C)[C@@H]1CC=C(CO)C[C@@H]21 (racemic) [11-OH-Δ8-THCV, (±)-11-hydroxy-Δ8-THCV] ; what concentration at 6 h value has been reported?
0

Suppose we examine the molecule CCCc1cc(O)c2c(c1)OC(C)(C)[C@@H]1CC=C(C)C[C@@H]21 [Δ8-THCV, Δ8-tetrahydrocannabivarin] ; what concentration at 6 h value has been reported?
0.7

Suppose we examine the molecule CCCc1cc(O)c2c(c1)OC(C)(C)[C@@H]1CCC(C)=C[C@@H]21 [Δ9-THCV, Δ9-tetrahydrocannabivarin] ; what concentration at 6 h value has been reported?
0

Suppose we examine the molecule `CCCc1cc(O)c2c(c1)OC(C)(C)[C@@H]1CCC(C(=O)O)=C[C@@H]21` ; what concentration at 6 h value has been reported?
2.4

----------
For each entry below, report its concentration at 2 h value.
assay: Plasma pharmacokinetics after single oral dose of Δ8-THCV in MCT oil (LC-MS/MS, non-compartmental analysis); type: in vivo, human; conditions: human, plasma, oral, 50 mg, 2 h; 50 mg Δ8-THCV dose; Median (IQ Range)
Express your answer in ng/mL, writing the number without its unit.

Suppose we examine the molecule CCCc1cc(O)c2c(c1)OC(C)(C)[C@@H]1CC=C(C)C[C@@H]21 [Δ8-THCV, Δ8-tetrahydrocannabivarin] ; what concentration at 2 h value has been reported?
0

Suppose we examine the molecule CCCc1cc(O)c2c(c1)OC(C)(C)[C@@H]1CCC(C)=C[C@@H]21 [Δ9-THCV, Δ9-tetrahydrocannabivarin] ; what concentration at 2 h value has been reported?
0

Suppose we examine the molecule CCCc1cc(O)c2c(c1)OC(C)(C)[C@@H]1CC=C(CO)C[C@@H]21 (racemic) [11-OH-Δ8-THCV, (±)-11-hydroxy-Δ8-THCV] ; what concentration at 2 h value has been reported?
0

Suppose we examine the molecule `CCCc1cc(O)c2c(c1)OC(C)(C)[C@@H]1CCC(C(=O)O)=C[C@@H]21` ; what concentration at 2 h value has been reported?
0

Suppose we examine the molecule CCCCCc1cc(O)c2c(c1)OC(C)(C)[C@@H]1CC=C(C(=O)O)CC21 (single isomer, unassigned; (+)) [Δ8-THC-COOH, (+)-11-nor-Δ8-THC-9-carboxylic acid] ; what concentration at 2 h value has been reported?
0

Suppose we examine the molecule `CCCc1cc(O)c2c(c1)OC(C)(C)[C@@H]1CC=C(C(=O)O)C[C@@H]21` ; what concentration at 2 h value has been reported?
26.5

----------
assay: Plasma pharmacokinetics after single oral dose of Δ8-THCV in MCT oil (LC-MS/MS, non-compartmental analysis); format: in vivo, human; settings: human, plasma, po, 200 mg, 200 mg single oral Δ8-THCV in MCT oil; Median (Range)
Binary call on AUC(0-t): met from 200 ng·h/mL upward, not met beneath that.

Given the entry `CCCc1cc(O)c2c(c1)OC(C)(C)[C@@H]1CC=C(C(=O)O)C[C@@H]21` , answer whether its AUC(0-t) meets or surpasses 200 ng·h/mL.
met

Given the entry CCCCCc1cc(O)c2c(c1)OC(C)(C)[C@@H]1CC=C(C(=O)O)CC21 (single isomer, unassigned; (+)) [Δ8-THC-COOH, (+)-11-nor-Δ8-THC-9-carboxylic acid] , answer whether its AUC(0-t) meets or surpasses 200 ng·h/mL.
not met

Given the entry CCCc1cc(O)c2c(c1)OC(C)(C)[C@@H]1CCC(C)=C[C@@H]21 [Δ9-THCV, Δ9-tetrahydrocannabivarin] , answer whether its AUC(0-t) meets or surpasses 200 ng·h/mL.
not met

Given the entry CCCc1cc(O)c2c(c1)OC(C)(C)[C@@H]1CC=C(C)C[C@@H]21 [Δ8-THCV, Δ8-tetrahydrocannabivarin] , answer whether its AUC(0-t) meets or surpasses 200 ng·h/mL.
not met

Given the entry CCCc1cc(O)c2c(c1)OC(C)(C)[C@@H]1CC=C(CO)C[C@@H]21 (racemic) [11-OH-Δ8-THCV, (±)-11-hydroxy-Δ8-THCV] , answer whether its AUC(0-t) meets or surpasses 200 ng·h/mL.
not met

Given the entry `CCCc1cc(O)c2c(c1)OC(C)(C)[C@@H]1CCC(C(=O)O)=C[C@@H]21` , answer whether its AUC(0-t) meets or surpasses 200 ng·h/mL.
not met

----------
For each entry below, report its concentration at 2 h value.
experiment: Plasma pharmacokinetics after single oral dose of Δ8-THCV in MCT oil (LC-MS/MS, non-compartmental analysis); type: in vivo, human; details: human, plasma, oral, 12.5 mg, 2 h; 12.5 mg Δ8-THCV dose; Median (IQ Range)
Express your answer in ng/mL, writing the number without its unit.

Suppose we examine the molecule CCCc1cc(O)c2c(c1)OC(C)(C)[C@@H]1CCC(C)=C[C@@H]21 [Δ9-THCV, Δ9-tetrahydrocannabivarin] ; what concentration at 2 h value has been reported?
0

Suppose we examine the molecule `CCCc1cc(O)c2c(c1)OC(C)(C)[C@@H]1CCC(C(=O)O)=C[C@@H]21` ; what concentration at 2 h value has been reported?
0

Suppose we examine the molecule `CCCc1cc(O)c2c(c1)OC(C)(C)[C@@H]1CC=C(C(=O)O)C[C@@H]21` ; what concentration at 2 h value has been reported?
15.5

Suppose we examine the molecule CCCc1cc(O)c2c(c1)OC(C)(C)[C@@H]1CC=C(CO)C[C@@H]21 (racemic) [11-OH-Δ8-THCV, (±)-11-hydroxy-Δ8-THCV] ; what concentration at 2 h value has been reported?
0

Suppose we examine the molecule CCCCCc1cc(O)c2c(c1)OC(C)(C)[C@@H]1CC=C(C(=O)O)CC21 (single isomer, unassigned; (+)) [Δ8-THC-COOH, (+)-11-nor-Δ8-THC-9-carboxylic acid] ; what concentration at 2 h value has been reported?
0

Suppose we examine the molecule CCCc1cc(O)c2c(c1)OC(C)(C)[C@@H]1CC=C(C)C[C@@H]21 [Δ8-THCV, Δ8-tetrahydrocannabivarin] ; what concentration at 2 h value has been reported?
0

----------
Test: Plasma pharmacokinetics after single oral dose of Δ8-THCV in MCT oil (LC-MS/MS, non-compartmental analysis)
Assay type: in vivo, human
Details: Predose; 100 mg Δ8-THCV dose; Mean (SD, %CV)
Protocol: The study was a two-phase, dose-ranging, placebo-controlled trial in 21 healthy participants to assess the safety, tolerability, PK, and PD of an oral formulation of Δ8-THCV. A detailed description of the study was published elsewhere. […] Plasma samples were analyzed using a validated high-performance liquid chromatography–tandem mass spectrometry (LC-MS/MS) assay. […] For the PK analysis, concentrations below the lower limit of quantification were set to 0 ng/mL. […]
assay-readout: plasma concentration

Suppose we examine the molecule CCCc1cc(O)c2c(c1)OC(C)(C)[C@@H]1CC=C(C(=O)O)C[C@@H]21 [Δ8-THCV-COOH, 11-nor-9-carboxy-Δ8-THCV] ; what plasma concentration value has been reported?
0.5 (±0.8, 166) ng/mL

Suppose we examine the molecule CCCc1cc(O)c2c(c1)OC(C)(C)[C@@H]1CCC(C)=C[C@@H]21 [Δ9-THCV, Δ9-tetrahydrocannabivarin] ; what plasma concentration value has been reported?
0 (±0, --) ng/mL

Suppose we examine the molecule CCCc1cc(O)c2c(c1)OC(C)(C)[C@@H]1CC=C(CO)C[C@@H]21 (racemic) [11-OH-Δ8-THCV, (±)-11-hydroxy-Δ8-THCV] ; what plasma concentration value has been reported?
0 (±0, --) ng/mL

Suppose we examine the molecule CCCCCc1cc(O)c2c(c1)OC(C)(C)[C@@H]1CC=C(C(=O)O)CC21 (single isomer, unassigned; (+)) [Δ8-THC-COOH, (+)-11-nor-Δ8-THC-9-carboxylic acid] ; what plasma concentration value has been reported?
0 (±0, --) ng/mL

Suppose we examine the molecule CCCc1cc(O)c2c(c1)OC(C)(C)[C@@H]1CCC(C(=O)O)=C[C@@H]21 [Δ9-THCV-COOH, 11-nor-9-carboxy-Δ9-THCV] ; what plasma concentration value has been reported?
0 (±0, --) ng/mL

Suppose we examine the molecule CCCc1cc(O)c2c(c1)OC(C)(C)[C@@H]1CC=C(C)C[C@@H]21 [Δ8-THCV, Δ8-tetrahydrocannabivarin] ; what plasma concentration value has been reported?
0 (±0, --) ng/mL
